The reported numbers originate from the supplement of paper PMC10883282.

# Tested on: MES-SA
# ASSAY NOTES: relative viability vs DMSO control (72 h) (fraction); higher = more viable cells
# SETUP CONDITIONS: 0.00017 µM
PROPERTY NAME: relative viability
Could you respond with only the numeric value?

Completed entries (count: 2):
[[record]]
compound = "COc1cc2ncnc(Nc3ccc(F)c(Cl)c3)c2cc1NC(=O)/C=C/CN1CCCCC1 [Dacomitinib]"
experimental_system = "MES-SA"
observed_result = 0.967

[[record]]
compound = "COc1cc(Nc2c(C#N)cnc3cc(OCCCN4CCN(C)CC4)c(OC)cc23)c(Cl)cc1Cl [Bosutinib]"
experimental_system = "MES-SA"
observed_result = 1.02


Recorded relative viability (compound CCCS(=O)(=O)N[C@H]1C[C@@H](N(C)c2ncnc3[nH]ccc23)C1 [Abrocitinib] ): 0.929

Notebook: N#Cc1ccnc(N2C(=O)CC[C@H]2C(=O)N(c2cncc(F)c2)[C@H](C(=O)NC2CC(F)(F)C2)c2ccccc2Cl)c1 [Ivosidenib] , relative viability read as 0.905

Quick note, relative viability for Cc1nc(Nc2ncc(C(=O)Nc3c(C)cccc3Cl)s2)cc(N2CCN(CCO)CC2)n1 [Dasatinib] landed at 0.935

====

# System: SW872
# ASSAY NOTES: relative viability vs DMSO control (72 h) (fraction); higher = more viable cells
# SETUP CONDITIONS: 0.00051 µM
PROPERTY NAME: relative viability
Write the value as a bare number.

The following molecules have reported results that may help.
[[record]]
molecule = "CN1CCN(CCOc2cc(OC3CCOCC3)c3c(Nc4c(Cl)ccc5c4OCO5)ncnc3c2)CC1 [Saracatinib]"
experimental_system = "SW872"
property_name = "relative viability"
observed_result = 1.05

[[record]]
molecule = "Cc1ccc(NC(=O)c2ccc(CN3CCN(C)CC3)cc2)cc1Nc1nccc(-c2cccnc2)n1 [Imatinib]"
experimental_system = "SW872"
property_name = "relative viability"
observed_result = 0.963

[[record]]
molecule = "CN(C)C[C@@H]1CCn2cc(c3ccccc32)C2=C(C(=O)NC2=O)c2cn(c3ccccc23)CCO1 [Ruboxistaurin]"
experimental_system = "SW872"
property_name = "relative viability"
observed_result = 1.04


relative viability recorded for this molecule, C[C@@H]1COC(Nc2ccc3ncnc(Nc4ccc(OCc5nccs5)c(Cl)c4)c3c2)=N1 [Varlitinib] , is 1.07

====

# Tested on: VA-ES-BJ
# ASSAY NOTES: relative viability vs DMSO control (72 h) (fraction); higher = more viable cells
# SETUP CONDITIONS: 0.00152 µM
Quick reference for relative viability among some compounds
Give a plain numeric answer without units written out.

Worked examples follow.
[[record]]
compound = "Cc1cn(-c2cc(NC(=O)c3ccc(C)c(Nc4nccc(-c5cccnc5)n4)c3)cc(C(F)(F)F)c2)cn1"
observed_result = 1.04

[[record]]
compound = "COc1cc2nccc(Oc3ccc(NC(=O)C4(C(=O)Nc5ccc(F)cc5)CC4)cc3)c2cc1OC [Cabozantinib]"
observed_result = 1.04

[[record]]
compound = "Cc1ccc(NC(=O)c2ccc(CN3CCN(C)CC3)cc2)cc1Nc1nccc(-c2cccnc2)n1"
observed_result = 1.04

[[record]]
compound = "CCN(c1cc(-c2ccc(CN3CCOCC3)cc2)cc(C(=O)NCc2c(C)cc(C)[nH]c2=O)c1C)C1CCOCC1"
observed_result = 1.05

[[record]]
compound = "C1=N/C2=N/c3ccc(OCCN4CCCC4)c(c3)COC/C=C/COCc3cccc(c3)C(=C1)N2"
observed_result = 1.09


Item CN(C)C[C@@H]1CCn2cc(c3ccccc32)C2=C(C(=O)NC2=O)c2cn(c3ccccc23)CCO1 ; assay system VA-ES-BJ; relative viability reported as 0.984

Entry CN1CCN(CCOc2cc(OC3CCOCC3)c3c(Nc4c(Cl)ccc5c4OCO5)ncnc3c2)CC1 , tested on VA-ES-BJ, has a reported relative viability of 1.07

====

# Tested on: RD-ES
# ASSAY NOTES: relative viability vs DMSO control (72 h) (fraction); higher = more viable cells
# SETUP CONDITIONS: 1.111 µM
relative viability: recorded values
The answer should be written as a number, with no unit following it.

Here are 5 compounds together with their reported answers.
[[record]]
compound = "CO[C@H]1C[C@@H]2CC[C@@H](C)[C@@](O)(O2)C(=O)C(=O)N2CCCC[C@H]2C(=O)O[C@H]([C@H](C)C[C@@H]2CC[C@@H](O)[C@H](OC)C2)CC(=O)[C@H](C)/C=C(\\C)[C@@H](O)[C@@H](OC)C(=O)[C@H](C)C[C@H](C)/C=C/C=C/C=C/1C [Rapamycin]"
observed_result = 0.687

[[record]]
compound = "COc1cc2ncnc(Nc3cccc(Cl)c3F)c2cc1OC(=O)N1CCN(C)C[C@H]1C [AZD-3759]"
observed_result = 0.961

[[record]]
compound = "COc1cc(OC)cc(N(CCNC(C)C)c2ccc3ncc(-c4cnn(C)c4)nc3c2)c1 [Erdafitinib]"
observed_result = 0.783

[[record]]
compound = "C#Cc1cccc(Nc2ncnc3cc(OCCOC)c(OCCOC)cc23)c1 [Erlotinib]"
observed_result = 0.987

[[record]]
compound = "C[C@@H]1COC(Nc2ccc3ncnc(Nc4ccc(OCc5nccs5)c(Cl)c4)c3c2)=N1 [Varlitinib]"
observed_result = 0.961


The recorded relative viability for C[C@H]1Oc2cc(cnc2N)-c2c(nn(C)c2C#N)CN(C)C(=O)c2ccc(F)cc21 [Lorlatinib] is 0.861

// sample CN(C)C[C@@H]1CCn2cc(c3ccccc32)C2=C(C(=O)NC2=O)c2cn(c3ccccc23)CCO1 [Ruboxistaurin] , its relative viability was 0.96

In plain terms, COc1cc2c(Oc3ccc4[nH]c(C)cc4c3F)ccnc2cc1OCC1(N)CC1 [Anlotinib] has a documented relative viability of 0.925

====

# System: G401
# ASSAY NOTES: standardised AUC of viability dose-response curve (72 h) (fraction (0-1)); higher = less growth inhibition (more resistant)
Reported values of standardised AUC for individual entries
Lab note: record just the number, no unit beside it.

Below: 3 compounds and their reported standardised AUC.
[[record]]
compound = "N#Cc1ccnc(N2C(=O)CC[C@H]2C(=O)N(c2cncc(F)c2)[C@H](C(=O)NC2CC(F)(F)C2)c2ccccc2Cl)c1 [IVOSIDENIB]"
observed_result = 0.981

[[record]]
compound = "COc1cc2c(Oc3ccc4[nH]c(C)cc4c3F)ccnc2cc1OCC1(N)CC1 [ANLOTINIB]"
observed_result = 0.872

[[record]]
compound = "CCCS(=O)(=O)N[C@H]1C[C@@H](N(C)c2ncnc3[nH]ccc23)C1 [ABROCITINIB]"
observed_result = 0.985


standardised AUC reading for COc1cc(OC)cc(N(CCNC(C)C)c2ccc3ncc(-c4cnn(C)c4)nc3c2)c1 [ERDAFITINIB] : 0.604

====

relative viability values by entry
# System: SW684
# ASSAY NOTES: relative viability vs DMSO control (72 h) (fraction); higher = more viable cells
# SETUP CONDITIONS: 0.00051 µM
Answer using only a numeral; do not append any unit.

[[record]]
compound = "CNC(=O)c1cc(Oc2ccc(NC(=O)Nc3ccc(Cl)c(C(F)(F)F)c3)cc2)ccn1 [Sorafenib]"
experimental_system = "SW684"
property_name = "relative viability"
observed_result = 1.2


Form field relative viability, entry C=CC(=O)Nc1cc(Nc2nccc(-c3cn(C)c4ccccc34)n2)c(OC)cc1N(C)CCN(C)C [Osimertinib] : 1.18

The compound identified as CN1CCN(CCOc2cc(OC3CCOCC3)c3c(Nc4c(Cl)ccc5c4OCO5)ncnc3c2)CC1 [Saracatinib] registered its relative viability at 1.15

Note to self: relative viability recorded for Cc1cn(-c2cc(NC(=O)c3ccc(C)c(Nc4nccc(-c5cccnc5)n4)c3)cc(C(F)(F)F)c2)cn1 [Nilotinib] was 1.07

Looking up C[C@H]1Oc2cc(cnc2N)-c2c(nn(C)c2C#N)CN(C)C(=O)c2ccc(F)cc21 [Lorlatinib] , I found its relative viability recorded as 1.2

Measured relative viability, N#Cc1ccnc(N2C(=O)CC[C@H]2C(=O)N(c2cncc(F)c2)[C@H](C(=O)NC2CC(F)(F)C2)c2ccccc2Cl)c1 [Ivosidenib] : 1.07

compound C[C@@H]1COC(Nc2ccc3ncnc(Nc4ccc(OCc5nccs5)c(Cl)c4)c3c2)=N1 [Varlitinib] , relative viability observed: 1.09

====

Listed below: relative viability values for each entry.
# System: G401
# ASSAY NOTES: relative viability vs DMSO control (72 h) (fraction); higher = more viable cells
# SETUP CONDITIONS: 10 µM
Keep it simple and answer with nothing but the number.

Guide cases for relative viability, answers given:
[[record]]
molecule = "Cc1cn(-c2cc(NC(=O)c3ccc(C)c(Nc4nccc(-c5cnccn5)n4)c3)cc(C(F)(F)F)c2)cn1"
observed_result = 0.931

[[record]]
molecule = "C=CC(=O)Nc1cc(Nc2nccc(-c3cn(C)c4ccccc34)n2)c(OC)cc1N(C)CCN(C)C"
observed_result = 0.0893


Note: attention shifts to another entry.
Notebook: Cc1cc(Nc2ncc(Cl)c(Nc3ccccc3S(=O)(=O)C(C)C)n2)c(OC(C)C)cc1C1CCNCC1 , relative viability read as -0.00287
